Molecular target: HLA-A*11:01
Experiment: IEDB peptide-MHC binding, purified MHC/direct/fluorescence; filed as Kd, often an IC50 or EC50 that approximates it; bounds were set here for any values at or beyond the usual limits of such assays
Conditions: source organism: Escherichia coli

Macromolecule sequence: SHDTIGPYY
Kd: ≥ 20 µM

====

Target: HLA-B*83:01
Experiment: IEDB peptide-MHC binding, purified MHC/competitive/fluorescence; filed as Kd, often an IC50 or EC50 that approximates it; bounds were set here for any values at or beyond the usual limits of such assays
Conditions: source organism: Mycobacterium tuberculosis variant bovis BCG str. Pasteur 1173P2

Macromolecule sequence: HPVTATISF
Kd (nM): 616
